Origin of measurements: ChEMBL document CHEMBL1150336

Item-by-item account of MIC
Test system: Enterococcus faecalis
procedure-text: Antibacterial activity against Enterococcus faecalis IID682 after 18 hrs by agar dilution method
Type: functional
// note: answer is a bare numeric in µg/mL

Some molecules with recorded MIC:
molecule: C[C@H]1COc2c(N3CC[C@@H](CNC4CC4)C3)c(F)cc3c(=O)c(C(=O)O)cn1c23
unit-string: µg/mL
MIC: 0.063

molecule: O=C(O)c1cn2c3c(c(N4CC[C@@H](CNC5CC5)C4)c(F)cc3c1=O)OC[C@@H]2CF
unit-string: µg/mL
MIC: 0.063

molecule: C[C@@H]1CN(c2c(F)cc3c(=O)c(C(=O)O)cn4c3c2OC[C@@H]4CF)C[C@@H]1CNC1CC1
unit-string: µg/mL
MIC: 0.063

molecule: O=C(O)c1cn2c3c(c(N4C[C@H](CNC5CC5)[C@H](F)C4)c(F)cc3c1=O)OC[C@@H]2CF
unit-string: µg/mL
MIC: 0.063

molecule: NC1CCN(c2c(F)cc3c(=O)c(C(=O)O)cn(C4CC4)c3c2Cl)C1 (stereo not given)
unit-string: µg/mL
MIC: 0.063

Lab note: `O=C(O)c1cn2c3c(c(N4C[C@H](CNC5CC5)[C@@H](F)C4)c(F)cc3c1=O)OC[C@@H]2CF` gave MIC of 0.125

Entry `C[C@H]1COc2c(N3CCN(C)CC3)c(F)cc3c(=O)c(C(=O)O)cn1c23.C[C@H]1COc2c(N3CCN(C)CC3)c(F)cc3c(=O)c(C(=O)O)cn1c23.O` , MIC reported as 1

The recorded MIC for entry `C[C@H]1CN(c2c(F)cc3c(=O)c(C(=O)O)cn4c3c2OC[C@@H]4CF)C[C@@H]1CNC1CC1` equals 0.063

Quick note, MIC for `C[C@H]1COc2c(N3C[C@H](CNC4CC4)[C@H](F)C3)c(F)cc3c(=O)c(C(=O)O)cn1c23` landed at 0.063

Reported MIC ( CCNCC1CCN(c2c(F)cc3c(=O)c(C(=O)O)cn4c3c2OC[C@@H]4C)C1 (stereo not given in full) ) = 0.25
